Attribute: Enzyme Activity Endpoint Assay: scIgG
Target: pooled human IgG
value kind: Enzyme Activity Endpoint Assay: scIgG (ng/µL)

>  <protein>
PRT-285 (protein) MVTSVWTKGVTPPAKFTQGEDVFHAPYDANQGWYDITKTFNGKDDLLCGAATAGNMLHWWFDQNKEKIEAYLKKHPDKQKIMFGDQELLDVRKVINTKGDQTNSELFNYFRDKAFPGLSARRIGVMPDLVLDMFINGYYLNVYKTQTTDVNRTYQEKDRRGGIFDAVFTRGDQSKLLTSRHDFKEKNLKEISDLIKKELTEGKALGLSHTYANVRISHVINLWGADFDSNGNLKAIYVTDSDSNASIGMKKYGVGVNSAGKVAISAKEIKEDNIGAQVLGLFTLSTGQDSWNQTN

>  <unit info>
ng/µL

>  <test value>
0

$$$$
>  <protein>
PRT-3 (protein) MRNATEAYAKEVPHQITSVWTKGVTPLTPEQFRYNNEDVIHAPYLAHQGWYDITKAFDGKDNLLCGAATAGNMLHWWFDQNKTEIEAYLSKHPEKQKIIFNNQELFDLKAAIDTKDSQTNSQLFNYFRDKAFPNLSARQLGVMPDLVLDMFINGYYLNVFKTQSTDVNRPYQDKDKRGGIFDAVFTRGDQTTLLTARHDLKNKGLNDISTIIKQELTEGRALALSHTYANVSISHVINLWGADFNAEGNLEAIYVTDSDANASIGMKKYFVGINAHGHVAISAKKIEGENIGAQVLGLFTLSSGKDIWQKLS

>  <unit info>
ng/µL

>  <test value>
33

$$$$
>  <protein>
PRT-279 (protein) MVTSVWTKGVTPPTDFIYGEDVLHAPYKAGQGWYDITKLFNGKDNLLCGAATAGNMLHWWFDQNKEQIENYLKKHPEKQKIIFNNQELFDLKAAIDTKDSQLDSKLFEYFLEKAFPYLSTKHLGVFPDHVIDMFINGYRLSLTNHGPTPVKRGSKDKRGGIFDAVFTRGVQSKLLTNRHDLKNKTLKEISDLIKQELTEGKALGISHTYANVRINHVINLWGADFDAEGNLEAIAVTDSDTNASIGMKKYFVGVNSSGKVAISAKEIEEDNIGAQVLGLFTLSTGQDIWNQTN

>  <unit info>
ng/µL

>  <test value>
0

$$$$
>  <protein>
PRT-287 (protein) MVTSVWTKGVTPPAKFTQGEDVFHAPYVANQGWYDITKEFNGKDDLLCGAATAGNMLHWWFDQNKEKIEAYLKKHPDKQKIMFGDQELLDVRKVINTKGDQTNSELFNYFRDKAFPNLSARRIGVMPDLVLDMFINGYYLNVYKTQTTDVNRTYQEKDRRGGIFDAVFTRGDQSKLLTSRHDFKEKNLKEISDLIKKELTEGKALGLSHTYANVRIGHVINLWGADFDSNGNLKAIYVTDSDSNASIGMKKYGVGVNSAGKVAISAKEIKEDNIGAQVLGLFTLSTGQDSWNQTN

>  <unit info>
ng/µL

>  <test value>
0

$$$$
>  <protein>
PRT-593 (protein) MANQEIRYSEETPSTITSVWTKGVTPPTDFIQNEDVLHAPYIANQGWYDITKTFNGKDDLLCGAATAGNMLHWWFDQNKEQIENYLKKHPEKQKINFNGEQMFDVKEAIDTKDHQTDSALFEYFKDKAFPYLSTKHLGVFPDHVIDMFINGYRLSLTNHGPTPVKRGTKDPRGGIFDAVFTRGDQSKLLTSRHDFKEKTLNEISDLIKQELTEGKALGLSHTYANVRINHVINLWGADFNAEGNLEAIYVTDSDSNASIGMKKYYVGVNSAGKVAISAKEIEGDNIGAQVLGLFTLSTGQDIWNQTNLEHHHHHH

>  <unit info>
ng/µL

>  <test value>
0

$$$$
>  <protein>
PRT-597 (protein) MANQEIRYSEETPSTITSVWTKGVTPPTDFIQNEDVLHAPYIANQGWYDITKTFNGKDDLLCGAATAGNMLHWWFDQNKEQIENYLKKHPEKQKINFNGEQMFDVKEAIDTKDSQTDSALFEYFKDKAFPYLSTKHLGVFPDHVIDMFINGYRLSLTNHGPTPVKRGTKDPRGGIFDAVFTRGDQSKLLTSRHDFKEKTLNEISDLIKQELTEGKALGLSHTYANVRINHVINLWGADFNANGNLEAIYVTDSDSNASIGMKKYYVGVNSAGKVAISAKEIEGDNIGAQVLGLFTLSTGQDIWNQTNLEHHHHHH

>  <unit info>
ng/µL

>  <test value>
0

$$$$
>  <protein>
PRT-540 (protein) MANQEIRYSKNENPNVTIKWVHGIGEPTQAEKEKIEFYWYETNTTKFFNNRKVTHLGDSNQCWAKTASNMLHWWFVQNKENINKYIEKKNITGKINFNGEQMFDVKEGIDDNQEKEKSYIANTFRTKKAHNLSTKHKGDYIINGLAWYLYGLNNFKNAHGPTPVKKKPKFYGPALFKDVFNRGDGNTPIIEETDFKEYTKKEFEDTLSEALDSKKAIGINIYGSNVDYGHAITLWGAAFDEDENIIAIYVVDNNFKFENRIFPYGIWYEKEGRPYLFNYEINSFVKNRYVGEITTLDKGEAQWQETNLEHHHHHH

>  <unit info>
ng/µL

>  <test value>
0

$$$$
>  <protein>
PRT-19 (protein) MANQEIRYSEESPSVVTSVWTKGVTPPANFTYGEDVFHAPYIANQGWYDITKTFNGKDDLLCGAATAGNMLHWWFDQNKDEIEAYLKKHPEKQKINFNGEQMFDVKEAIDTKDDQTNSKLFNYFKDKAFPYLSTKHLGVFPDHVLDMFINGYRLNLTNHGPTPVKEGSKDPRGGIFDAVFTRGDQSKLLTSRHDFKEKTLKEISDLIKQELTEGKALGLSHTYANVRINHVINLWGADFNSEGNLKAIYVTDSDSNASIGMKKYFVGVNAAGKVAISAKEIKDDNIGAQVLGLFTLSTGQDIWNQTN

>  <unit info>
ng/µL

>  <test value>
13

$$$$
